Values compiled from PubChem BioAssay (Tox21).

- assaySystem: Estrogen receptor (Homo sapiens) (UniProt P03372)
- Sequence (P03372 whole entry, looked up): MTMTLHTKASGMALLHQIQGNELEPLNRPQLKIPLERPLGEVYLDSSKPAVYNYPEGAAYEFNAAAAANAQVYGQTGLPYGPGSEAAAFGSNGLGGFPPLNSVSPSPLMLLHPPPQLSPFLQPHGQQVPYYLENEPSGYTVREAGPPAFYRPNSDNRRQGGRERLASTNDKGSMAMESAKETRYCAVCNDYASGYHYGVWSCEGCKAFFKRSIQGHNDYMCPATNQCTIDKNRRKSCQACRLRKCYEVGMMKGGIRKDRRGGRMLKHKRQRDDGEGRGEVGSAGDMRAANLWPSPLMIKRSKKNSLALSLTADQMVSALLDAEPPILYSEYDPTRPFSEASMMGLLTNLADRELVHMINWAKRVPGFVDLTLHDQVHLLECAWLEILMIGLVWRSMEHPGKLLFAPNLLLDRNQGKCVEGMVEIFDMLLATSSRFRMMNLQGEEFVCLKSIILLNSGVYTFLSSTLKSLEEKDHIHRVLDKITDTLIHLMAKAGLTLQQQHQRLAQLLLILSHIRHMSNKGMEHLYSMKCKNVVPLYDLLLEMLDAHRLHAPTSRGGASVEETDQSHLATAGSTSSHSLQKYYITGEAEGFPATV
- experimentNotes: qHTS assay to identify small molecule antagonists of the estrogen receptor alpha (ER-alpha) signaling pathway (AID 743069); further: on the % scale 0 is the no-effect control and ±100 the full control effect
- measurementSetup: HEK293 ER-alpha-UAS-bla, beta-lactamase ratio, antagonist mode; series mostly up to 69.4 µM
Results filed as inconclusive are left out. Activity calls are given as the source filed them. The call rests on the fitted dose curve; in most records, active means well fitted curve in the direction sought with a large enough effect in the signal ratio in the repeat runs (not every such curve was filed as active); inconclusive means weak or mixed curves, or effect the other way; inactive means no such curve, though single readings can be large or run the other way; the % refers to the signal ratio.

[
  {
    "chemicalStructure": "CN1CCN(C(=O)C2CCCCC2)CC1",
    "activity, negative = inhibition": "inactive"
  },
  {
    "chemicalStructure": "O=P(O)(O)C(O)(Cc1cccnc1)P(=O)(O)O",
    "activity, negative = inhibition": "inactive"
  },
  {
    "chemicalStructure": "N#Cc1ccccc1C#N",
    "activity, negative = inhibition": "inactive"
  },
  {
    "chemicalStructure": "CC/C=C/CCCCCCCCCCOC(C)=O",
    "activity, negative = inhibition": "inactive"
  },
  {
    "chemicalStructure": "c1coc(Cn2cccc2)c1",
    "activity, negative = inhibition": "inactive"
  },
  {
    "chemicalStructure": "COC(=O)/C=C(\\C)CCC=C(C)C",
    "activity, negative = inhibition": "inactive"
  },
  {
    "chemicalStructure": "Cc1ccccc1C#N",
    "activity, negative = inhibition": "inactive"
  },
  {
    "chemicalStructure": "Nc1cc(S(=O)(=O)O)ccc1O",
    "activity, negative = inhibition": "inactive"
  },
  {
    "chemicalStructure": "CC(C)(C)C(=O)NCCCC(=O)O",
    "activity, negative = inhibition": "inactive"
  },
  {
    "chemicalStructure": "CC(C)(C)OC(=O)c1ccccc1C(=O)O",
    "activity, negative = inhibition": "inactive"
  }
]

====

- assaySystem: Glucocorticoid receptor (Homo sapiens)
- experimentNotes: qHTS assay to identify small molecule agonists of the glucocorticoid receptor (GR) signaling pathway (AID 720691); further: on the % scale 0 is the no-effect control and ±100 the full control effect
- measurementSetup: GR-bla HeLa, beta-lactamase reporter ratio, 18 h; series mostly up to 62.4 µM
- From the text: U.S. Tox21 Program National Center for Advancing Translational Sciences [NCATS] NIH Chemical Genomics Center [NCGC] U.S. Environmental Protection Agency [EPA] National Institutes of Environmental Health Sciences [NIEHS] National Toxicology Program [NTP] U.S. Food and Drug Administration [FDA] […] The activation of the reporter gene under culture conditions can be detected by fluorescence intensity. […]
Inconclusive results are not listed. Calls of active or inactive are those of the source. Calls follow the shape of the dose curve; as a rule, active = well fitted activation curve with a large enough effect in the signal ratio in the repeat runs (not every such curve was filed as active); inconclusive = weak or mixed curves, or effect the other way; inactive = no such curve, though single readings can be large or run the other way; the % refers to the signal ratio.
readoutType: activation

[
  {
    "compound": "CCCCCCCCCCCCCCCCN(C)C",
    "assaySystem": "Glucocorticoid receptor (Homo sapiens)",
    "readoutType": "activation",
    "measuredResult": "-0.164% [at 6.9 µM] (inactive)"
  },
  {
    "compound": "CCCCCC(CC)OC(=O)CCCOc1ccc(Cl)cc1Cl (stereo not drawn)",
    "assaySystem": "Glucocorticoid receptor (Homo sapiens)",
    "readoutType": "activation",
    "measuredResult": "inactive"
  },
  {
    "compound": "CN(C)CCCN(C)C",
    "assaySystem": "Glucocorticoid receptor (Homo sapiens)",
    "readoutType": "activation",
    "measuredResult": "-0.0659% [at 6.9 µM] (inactive)"
  },
  {
    "compound": "C=CC(C)(CCC=C(C)C)OC(=O)C(C)C (stereo not drawn)",
    "assaySystem": "Glucocorticoid receptor (Homo sapiens)",
    "readoutType": "activation",
    "measuredResult": "inactive"
  },
  {
    "compound": "CCCCCCC(O)CO (stereo not drawn)",
    "assaySystem": "Glucocorticoid receptor (Homo sapiens)",
    "readoutType": "activation",
    "measuredResult": "inactive"
  },
  {
    "compound": "O=C(O)CCCCCCCCCC(=O)O",
    "assaySystem": "Glucocorticoid receptor (Homo sapiens)",
    "readoutType": "activation",
    "measuredResult": "inactive"
  },
  {
    "compound": "CC1(C)S[C@@H]2[C@H](NC(=O)Cc3ccccc3)C(=O)N2[C@H]1C(=O)O (tested in a mixture with another compound)",
    "assaySystem": "Glucocorticoid receptor (Homo sapiens)",
    "readoutType": "activation",
    "measuredResult": "inactive"
  },
  {
    "compound": "CC(C)C(C)C",
    "assaySystem": "Glucocorticoid receptor (Homo sapiens)",
    "readoutType": "activation",
    "measuredResult": "inactive"
  }
]

====

- experimentNotes: qHTS assay for small molecule disruptors of the mitochondrial membrane potential (AID 720635)
- measurementSetup: HepG2 mitochondrial membrane potential, Mito-MPS dye ratio; series mostly up to 83.2 µM
- Source text: U.S. Tox21 Program National Center for Advancing Translational Sciences [NCATS] NIH Chemical Genomics Center [NCGC] U.S. Environmental Protection Agency [EPA] National Institutes of Environmental Health Sciences [NIEHS] National Toxicology Program [NTP] U.S. Food and Drug Administration [FDA] […] The dye accumulates in the mitochondria of healthy cells as aggregates, with red fluorescence. […]
Results filed as inconclusive are left out. Activity calls are given as the source filed them. The call rests on the fitted dose curve; in most records, active means well fitted inhibition curve with a large enough effect in the signal ratio in the repeat runs; inconclusive means weak or mixed curves, or effect the other way; inactive means flat fitted curve, though single readings scatter; the % refers to the signal ratio.
Labels: class 1 for active, class 0 for inactive

[
  {
    "molecule": "CCCc1ccc(O)c(OC)c1",
    "assignedCategory": "class 0"
  },
  {
    "molecule": "C=COCCCCO",
    "assignedCategory": "class 0"
  },
  {
    "molecule": "COCCCOc1cc(C[C@@H](C[C@H](N)[C@@H](O)C[C@H](C(=O)NCC(C)(C)C(N)=O)C(C)C)C(C)C)ccc1OC",
    "assignedCategory": "class 0"
  },
  {
    "molecule": "O=CN1CCCCC1",
    "assignedCategory": "class 0"
  },
  {
    "molecule": "CN(C)c1ccncc1",
    "assignedCategory": "class 0"
  },
  {
    "molecule": "CCCCS",
    "assignedCategory": "class 0"
  },
  {
    "molecule": "Cc1nc2ccc(Cl)cc2[nH]1",
    "assignedCategory": "class 0"
  },
  {
    "molecule": "CC(C)OCCO",
    "assignedCategory": "class 0"
  },
  {
    "molecule": "CCOC(=O)CC(C(C)=O)C(C)=O",
    "assignedCategory": "class 0"
  },
  {
    "molecule": "CC(O)CCCCn1c(=O)c2c(ncn2C)n(C)c1=O (stereo unspecified)",
    "assignedCategory": "class 0"
  },
  {
    "molecule": "Cc1ccc(NC(N)=O)cc1",
    "assignedCategory": "class 0"
  },
  {
    "molecule": "C[C@H]1COc2c(C3(N)CC3)c(F)cc3c(=O)c(C(=O)O)cn1c23",
    "assignedCategory": "class 0"
  },
  {
    "molecule": "N=C(N)N",
    "assignedCategory": "class 0"
  },
  {
    "molecule": "COc1ccc2cc(CCC(C)=O)ccc2c1",
    "assignedCategory": "class 0"
  },
  {
    "molecule": "CC(=O)SCC(CC(=O)c1ccc(C)cc1)C(=O)O (stereo unspecified)",
    "assignedCategory": "class 0"
  },
  {
    "molecule": "NC(=O)CC[C@@H](N)C(=O)O",
    "assignedCategory": "class 0"
  },
  {
    "molecule": "CCCCCCCC(=O)N(C)C",
    "assignedCategory": "class 0"
  },
  {
    "molecule": "C[C@]12C=CC(=O)C=C1[C@@H](F)C[C@@H]1[C@@H]2[C@@H](O)C[C@@]2(C)[C@H]1CC[C@]2(O)C(=O)CO",
    "assignedCategory": "class 0"
  },
  {
    "molecule": "CC(C)(Sc1cc(C(C)(C)C)c(O)c(C(C)(C)C)c1)Sc1cc(C(C)(C)C)c(O)c(C(C)(C)C)c1",
    "assignedCategory": "class 0"
  },
  {
    "molecule": "CCCC(C)C(O)CC (stereo unspecified)",
    "assignedCategory": "class 0"
  },
  {
    "molecule": "CC(C)(C)OC(=O)c1ccccc1C(=O)O",
    "assignedCategory": "class 0"
  },
  {
    "molecule": "CCCCN(CCCC)CCCCCCN(CCCC)CCCC",
    "assignedCategory": "class 0"
  },
  {
    "molecule": "CCCCCCCCCCCC(C)=O",
    "assignedCategory": "class 0"
  },
  {
    "molecule": "O=Cc1ccc(C(=O)O)cc1",
    "assignedCategory": "class 0"
  },
  {
    "molecule": "CCCCCCCCOCCC#N",
    "assignedCategory": "class 0"
  },
  {
    "molecule": "CC(=O)c1ccc2ccc3ccccc3c2c1",
    "assignedCategory": "class 1"
  },
  {
    "molecule": "COc1cnc(NS(=O)(=O)c2ccc(N)cc2)nc1",
    "assignedCategory": "class 0"
  },
  {
    "molecule": "O=C(O)CCC(=O)Nc1ccc(S(=O)(=O)Nc2nccs2)cc1",
    "assignedCategory": "class 0"
  },
  {
    "molecule": "C=CCOC(=O)CCCCCCCC",
    "assignedCategory": "class 0"
  },
  {
    "molecule": "NNC(=O)OCc1ccccc1",
    "assignedCategory": "class 0"
  },
  {
    "molecule": "Cc1ccc2ccccc2n1",
    "assignedCategory": "class 0"
  },
  {
    "molecule": "Nc1nc(Cl)cc(Cl)n1",
    "assignedCategory": "class 0"
  },
  {
    "molecule": "N#Cc1ccccc1C#N",
    "assignedCategory": "class 0"
  },
  {
    "molecule": "COC(=O)C(c1ccccc1Cl)N1CCc2sccc2C1 (stereo unspecified)",
    "assignedCategory": "class 0"
  },
  {
    "molecule": "OCCC(F)(F)C(F)(F)C(F)(F)C(F)(F)C(F)(F)C(F)(F)F",
    "assignedCategory": "class 0"
  },
  {
    "molecule": "CC/C=C/CCCCCCCCCCOC(C)=O",
    "assignedCategory": "class 0"
  },
  {
    "molecule": "CN(C)CCc1c[nH]c2ccc(CS(=O)(=O)N3CCCC3)cc12",
    "assignedCategory": "class 0"
  },
  {
    "molecule": "O=C(O)Cc1ccccc1Oc1ccc(Cl)cc1Cl",
    "assignedCategory": "class 0"
  },
  {
    "molecule": "COC(=O)/C=C(\\C)CCC=C(C)C",
    "assignedCategory": "class 0"
  },
  {
    "molecule": "CSC(=O)c1cccc2nnsc12",
    "assignedCategory": "class 0"
  },
  {
    "molecule": "O=S(=O)(O)c1cc(I)c(O)c2ncccc12",
    "assignedCategory": "class 0"
  }
]
